Collected MIC values appear next to each entry.
tested on: Streptococcus pyogenes 930; assay: In vitro agar dilution MIC, organism code MM; assay type: cell-based; conditions: Table 1B, unit assumed
experimental endpoint: MIC (µg/mL)

• CC[C@H]1OC(=O)[C@@](C)(F)C(=O)[C@H](C)[C@@H](O[C@@H]2O[C@H](C)C[C@H](N(C)C)[C@H]2O)[C@](C)(OC/C=C/c2cnc3ccc(NC)cc3c2)C[C@@H](C)C(=O)[C@H](C)[C@H]2NC(=O)O[C@@]21C = 0.39
• CC[C@H]1OC(=O)C(C)(F)C(=O)[C@H](C)[C@@H](O[C@@H]2O[C@H](C)C[C@H](N(C)C)[C@H]2O)[C@](C)(OCC#Cc2ccc(-c3cccs3)s2)C[C@@H](C)C(=O)[C@H](C)[C@H]2NC(=O)O[C@@]21C (some centres unmarked) = 0.78
• CC[C@H]1OC(=O)[C@@](C)(F)C(=O)[C@H](C)[C@@H](O[C@@H]2O[C@H](C)C[C@H](N(C)C)[C@H]2O)[C@](C)(OC/C=C/c2cnc3ccc(C(N)=O)cc3c2)C[C@@H](C)C(=O)[C@H](C)[C@H]2NC(=O)O[C@@]21C = 0.1
• CC[C@H]1OC(=O)[C@@](C)(F)C(=O)[C@H](C)[C@@H](O[C@@H]2O[C@H](C)C[C@H](N(C)C)[C@H]2O)[C@](C)(OC/C=C/c2cnc3ccc(C=O)cc3c2)C[C@@H](C)C(=O)[C@H](C)[C@H]2NC(=O)O[C@@]21C = 0.78
• CC[C@H]1OC(=O)[C@@](C)(F)C(=O)[C@H](C)[C@@H](O[C@@H]2O[C@H](C)C[C@H](N(C)C)[C@H]2O)[C@](C)(OC/C=C/c2cnc3ncccc3c2)C[C@@H](C)C(=O)[C@H](C)[C@H]2NC(=O)O[C@@]21C = 0.1
• CC[C@H]1OC(=O)[C@@](C)(F)C(=O)[C@H](C)[C@@H](O[C@@H]2O[C@H](C)C[C@H](N(C)C)[C@H]2O)[C@](C)(OC/C=C/c2cnc3ccc(C=NO)cc3c2)C[C@@H](C)C(=O)[C@H](C)[C@H]2NC(=O)O[C@@]21C = 0.2

----------
Collected MIC values appear next to each entry.
tested on: Mycobacterium smegmatis ATCC 114; assay: In vitro agar dilution MIC, organism code UU; assay type: cell-based; conditions: Table 1B, in µg/mL (unit assumed)
experimental endpoint: MIC

- CC[C@H]1OC(=O)[C@@](C)(F)C(=O)[C@H](C)[C@@H](O[C@@H]2O[C@H](C)C[C@H](N(C)C)[C@H]2O)[C@](C)(OC/C=C/c2cnc3ccccc3c2)C[C@@H](C)C(=O)[C@H](C)[C@H]2NC(=O)O[C@@]21C: 0.2
- CC[C@H]1OC(=O)[C@@](C)(F)C(=O)[C@H](C)[C@@H](O[C@@H]2O[C@H](C)C[C@H](N(C)C)[C@H]2O)[C@](C)(OC/C=C/c2ccc3nccnc3c2)C[C@@H](C)C(=O)[C@H](C)[C@H]2NC(=O)O[C@@]21C: 0.2

----------
test system: Streptococcus pneumoniae 5979; experiment: In vitro agar dilution MIC, organism code ZZ; format: cell-based; settings: Table 1B, unit assumed
experimental endpoint: MIC (µg/mL)

* CC[C@H]1OC(=O)C(C)(F)C(=O)[C@H](C)[C@@H](O[C@@H]2O[C@H](C)C[C@H](N(C)C)[C@H]2O)[C@](C)(OCC#Cc2ccc(-c3cccs3)s2)C[C@@H](C)C(=O)[C@H](C)[C@H]2NC(=O)O[C@@]21C (stereo partly shown) [Example 28] | 16
* CC[C@H]1OC(=O)[C@@](C)(F)C(=O)[C@H](C)[C@@H](O[C@@H]2O[C@H](C)C[C@H](N(C)C)[C@H]2O)[C@](C)(OC/C=C/c2cnc3ccc([N+](=O)[O-])cc3c2)C[C@@H](C)C(=O)[C@H](C)[C@H]2NC(=O)O[C@@]21C [Example 6] | 1
* CC[C@H]1OC(=O)[C@@](C)(F)C(=O)[C@H](C)[C@@H](O[C@@H]2O[C@H](C)C[C@H](N(C)C)[C@H]2O)[C@](C)(OC/C=C/c2ccc3nccnc3c2)C[C@@H](C)C(=O)[C@H](C)[C@H]2NC(=O)O[C@@]21C [Example 12] | 1
* CC[C@H]1OC(=O)[C@@](C)(F)C(=O)[C@H](C)[C@@H](O[C@@H]2O[C@H](C)C[C@H](N(C)C)[C@H]2O)[C@](C)(OC/C=C/c2cnc3ccc(C=NN=C(C)C)cc3c2)C[C@@H](C)C(=O)[C@H](C)[C@H]2NC(=O)O[C@@]21C [Example 20] | 2
* CC[C@H]1OC(=O)[C@@](C)(F)C(=O)[C@H](C)[C@@H](O[C@@H]2O[C@H](C)C[C@H](N(C)C)[C@H]2O)[C@](C)(OC/C=C/c2ccccc2)C[C@@H](C)C(=O)[C@H](C)[C@H]2NC(=O)O[C@@]21C [Example 7] | 64
* CC[C@H]1OC(=O)[C@@](C)(F)C(=O)[C@H](C)[C@@H](O[C@@H]2O[C@H](C)C[C@H](N(C)C)[C@H]2O)[C@](C)(OC/C=C/c2cnc3ccccc3c2)C[C@@H](C)C(=O)[C@H](C)[C@H]2NC(=O)O[C@@]21C [Example 5] | 1
* CC[C@H]1OC(=O)[C@@](C)(F)C(=O)[C@H](C)[C@@H](O[C@@H]2O[C@H](C)C[C@H](N(C)C)[C@H]2O)[C@](C)(OC/C=C/c2cnc3ccc(CS(N)(=O)=O)cc3c2)C[C@@H](C)C(=O)[C@H](C)[C@H]2NC(=O)O[C@@]21C [Example 14] | 2
* CC[C@H]1OC(=O)[C@@](C)(F)C(=O)[C@H](C)[C@@H](O[C@@H]2O[C@H](C)C[C@H](N(C)C)[C@H]2O)[C@](C)(OC/C=C/c2cnc3ccc(N(C)C)cc3c2)C[C@@H](C)C(=O)[C@H](C)[C@H]2NC(=O)O[C@@]21C [Example 13] | 1
* CC[C@H]1OC(=O)[C@@](C)(F)C(=O)[C@H](C)[C@@H](O[C@@H]2O[C@H](C)C[C@H](N(C)C)[C@H]2O)[C@](C)(OC/C=C/c2cnc3ccc(NC(=O)OC(C)(C)C)cc3c2)C[C@@H](C)C(=O)[C@H](C)[C@H]2NC(=O)O[C@@]21C [Example 8] | 16
* CC[C@H]1OC(=O)[C@@](C)(F)C(=O)[C@H](C)[C@@H](O[C@@H]2O[C@H](C)C[C@H](N(C)C)[C@H]2O)[C@](C)(OC/C=C/c2cnc3ccc(C=NN)cc3c2)C[C@@H](C)C(=O)[C@H](C)[C@H]2NC(=O)O[C@@]21C [Example 19] | 1
* CC[C@H]1OC(=O)[C@@](C)(F)C(=O)[C@H](C)[C@@H](O[C@@H]2O[C@H](C)C[C@H](N(C)C)[C@H]2O)[C@](C)(OC/C=C/c2cnc3ccc(C=NO)cc3c2)C[C@@H](C)C(=O)[C@H](C)[C@H]2NC(=O)O[C@@]21C [Example 18] | 0.25
* CC[C@H]1OC(=O)[C@@](C)(F)C(=O)[C@H](C)[C@@H](O[C@@H]2O[C@H](C)C[C@H](N(C)C)[C@H]2O)[C@](C)(OC/C=C/c2cnc3ccc(C(N)=O)cc3c2)C[C@@H](C)C(=O)[C@H](C)[C@H]2NC(=O)O[C@@]21C [Example 15] | 0.5

----------
Tested on: Nocardia asteroides ATCC 9970
Assay: In vitro agar dilution MIC, organism code VV
Type: cell-based
Details: Table 1B, in µg/mL (unit assumed)
Procedure: Representative compounds of the present invention were assayed in vitro for antibacterial activity as follows: Twelve petri dishes containing successive aqueous dilutions of the test compound mixed with 10 mL of sterilized Brain Heart Infusion (BHI) agar (Difco 0418-01-5) were prepared. Each plate was inoculated with 1:100 (or 1:10 for slow-growing strains, such as Micrococcus and Streptococcus) dilutions of up to 32 different microorganisms, using a Steers replicator block. […]
experimental endpoint: MIC

• CC[C@H]1OC(=O)C(C)(F)C(=O)[C@H](C)[C@@H](O[C@@H]2O[C@H](C)C[C@H](N(C)C)[C@H]2O)[C@](C)(OCC#CC(=O)c2ccc(Cl)nc2)C[C@@H](C)C(=O)[C@H](C)[C@H]2NC(=O)O[C@@]21C (stereo partly drawn) [Example 25] = 0.2
• CC[C@H]1OC(=O)[C@@](C)(F)C(=O)[C@H](C)[C@@H](O[C@@H]2O[C@H](C)C[C@H](N(C)C)[C@H]2O)[C@](C)(OC/C=C/c2ccc3nccnc3c2)C[C@@H](C)C(=O)[C@H](C)[C@H]2NC(=O)O[C@@]21C [Example 12] = ≤ 0.005
• CC[C@H]1OC(=O)C(C)(Br)C(=O)[C@H](C)[C@@H](O[C@@H]2O[C@H](C)C[C@H](N(C)C)[C@H]2O)[C@](C)(OC)C[C@@H](C)C2=NCCN3C(=O)O[C@@]1(C)[C@H]3[C@H]2C (stereo partly drawn) [Example 3] = 0.39
• C=CCO[C@]1(C)C[C@@H](C)C(=O)[C@H](C)[C@H]2NC(=O)O[C@]2(C)[C@@H](CC)OC(=O)[C@@](C)(F)C(=O)[C@H](C)[C@H]1O[C@@H]1O[C@H](C)C[C@H](N(C)C)[C@H]1O [Example 4] = 0.39
• CC[C@H]1OC(=O)C(C)(Cl)C(=O)[C@H](C)[C@@H](O[C@@H]2O[C@H](C)C[C@H](N(C)C)[C@H]2O)[C@](C)(OC)C[C@@H](C)C2=NCCN3C(=O)O[C@@]1(C)[C@H]3[C@H]2C (stereo partly drawn) [Example 2] = 50
• CC[C@H]1OC(=O)[C@@](C)(F)C(=O)[C@H](C)[C@@H](O[C@@H]2O[C@H](C)C[C@H](N(C)C)[C@H]2O)[C@](C)(OC/C=C/c2ccc3ncccc3c2)C[C@@H](C)C(=O)[C@H](C)[C@H]2NC(=O)O[C@@]21C [Example 10] = 0.01
• CC[C@H]1OC(=O)[C@@](C)(F)C(=O)[C@H](C)[C@@H](O[C@@H]2O[C@H](C)C[C@H](N(C)C)[C@H]2O)[C@](C)(OC/C=C/c2cnc3ccc(NC)cc3c2)C[C@@H](C)C(=O)[C@H](C)[C@H]2NC(=O)O[C@@]21C [Example 16] = 0.01
• CC[C@H]1OC(=O)[C@@](C)(F)C(=O)[C@H](C)[C@@H](O[C@@H]2O[C@H](C)C[C@H](N(C)C)[C@H]2O)[C@](C)(OC/C=C/c2cnc3ncccc3c2)C[C@@H](C)C(=O)[C@H](C)[C@H]2NC(=O)O[C@@]21C [Example 11] = 0.01
• CC[C@H]1OC(=O)[C@@](C)(F)C(=O)[C@H](C)[C@@H](O[C@@H]2O[C@H](C)C[C@H](N(C)C)[C@H]2O)[C@](C)(OC/C=C/c2ccccc2)C[C@@H](C)C(=O)[C@H](C)[C@H]2NC(=O)O[C@@]21C [Example 7] = ≤ 0.005
